Hey, just so you know, these numbers are from patent US20250270173A1.

- testedOn: 5-HT2A receptor (Homo sapiens (Human), UniProt P28223)
- testName: FLIPR Ca2+ flux functional assay at 5-HT2A (HEK293)
Measured pEC50, listed per entry for reference.
For clarity, pEC50 is expressed as the negative log10 of concentration in mol/L.

# compound, quantitativeResult
data = [
    ("CCC(N)Cc1nc(OC)c(C2CC2)cc1OC (centres unmarked) [Compound 28]", 6.79),
    ("COc1cc(Cl)c(OC)nc1CC(C)N (centres unmarked) [Compound 17]", 8.20),
]

Input line: Please give measured pEC50 of the following entry: COc1cc(C)c(OC)nc1CCN [Compound 8]
Output line: 7.18

Input line: Please give measured pEC50 of the following entry: COc1ccccc1CNCCc1nc(OC)c(Br)cc1OC [Compound 25]
Output line: 8.80

Input line: Please give measured pEC50 of the following entry: CCCCCc1nc(OC)c(CC(N)CC)cc1OC (centres unmarked) [Compound 11]
Output line: 6.45

Input line: Please give measured pEC50 of the following entry: CCC(N)Cc1nc(OC)c(Br)cc1OC (centres unmarked) [Compound 3]
Output line: 6.87

Input line: Please give measured pEC50 of the following entry: COc1cc(C2CC2)c(OC)nc1CC(C)N (centres unmarked) [Compound 27]
Output line: 7.82

Input line: Please give measured pEC50 of the following entry: COc1cc(CCCCCF)c(OC)nc1CCN [Compound 34]
Output line: 7.87

###

- testedOn: 5-HT2A receptor (Homo sapiens (Human), UniProt P28223)
- testName: FLIPR Ca2+ flux functional assay at 5-HT2A (HEK293)
Measured EC50, listed per entry for reference.
Field format: number, assumed nM, no unit text.

# molecule, testedOn, unitAbbreviation, EC50
rows = [
    ("CCCCCc1cc(OC)c(CC(C)N)nc1OC (stereo not drawn)", "5-HT2A receptor (Homo sapiens (Human), UniProt P28223)", "nM", 15.4),
    ("CCCCc1cc(OC)c(CCN)nc1OC", "5-HT2A receptor (Homo sapiens (Human), UniProt P28223)", "nM", 7.88),
]

Input line: Please give measured EC50 of the following entry: COc1cc(Br)c(OC)nc1CCN
Output line: 9.81
